A collection of molecules and their measured GI50
# Tested on: COLO 205
# test summary: NCI tumour cell line growth inhibition, 48 h
The source made the active and inactive calls. Rule as the data show it: active = GI50 up to about 1.1 µM and inactive = higher.

Solved cases (3 shown):
molecule	value
CCNc1c(C(=O)N(CC)CC)c(=O)[nH]c2ncccc12	> 100 µM (inactive)
NC(=O)CC1OC(=O)Cc2cc3c(c(O)c21)C(=O)c1c(O)cccc1C3=O (stereo not given)	61.2 µM (inactive)
CC1CC2=C(S(=O)(=O)c3ccccc3)CC(S(=O)(=O)c3ccccc3)(S(=O)(=O)c3ccccc3)CC21 (stereo not given)	> 100 µM (inactive)

Request: Which GI50 value belongs to `FC(F)(F)c1cc(N(C2c3ccccc3C=Cc3ccccc32)P(Cl)Cl)cc(C(F)(F)F)c1` ?
Result: 22.2 µM (inactive)
